The measurements presented in this section are drawn from patent US20260193335A1.

Target entity: Feline FcRn (complex of FcRn-α subunit and β-microglobulin, C-terminal His tag) (feline)
Sequence (chain, as listed by the source, chain 1 of 2): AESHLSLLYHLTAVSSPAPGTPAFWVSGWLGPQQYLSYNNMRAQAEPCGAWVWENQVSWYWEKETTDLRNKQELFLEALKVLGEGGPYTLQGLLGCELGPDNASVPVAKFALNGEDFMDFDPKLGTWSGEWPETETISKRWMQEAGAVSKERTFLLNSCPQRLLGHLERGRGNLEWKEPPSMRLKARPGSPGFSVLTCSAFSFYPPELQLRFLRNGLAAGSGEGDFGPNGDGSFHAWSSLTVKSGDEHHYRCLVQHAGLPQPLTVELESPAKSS
Sequence (Q5MGS7 21-118, chain 2 of 2): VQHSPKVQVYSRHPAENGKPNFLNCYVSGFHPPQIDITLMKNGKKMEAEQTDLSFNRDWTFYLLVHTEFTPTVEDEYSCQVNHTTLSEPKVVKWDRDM
Experiment: SPR Biacore, FcRn amine-coupled on CM5, pH 6
pKd: −log10 of the molar value.

Binder | pKd
mAb6 (felinized anti-TGFβ antibody of Tables 1 and 2) wild-type, feline IgG1a (antibody, part only; not given: Anti-TGFβ variable domains, antibody unnamed, part only) heavy, part: ASTTAPSVFPLAPSCGTTSGATVALACLVLGYFPEPVTVSWNSGALTSGVHTFPAVLQASGLYSLSSMVTVPSSRWLSDTFTCNVAHPPSNTKVDKTVRKTDHPPGPKPCDCPKCPPPEMLGGPSIFIFPPKPKDTLSISRTPEVTCLVVDLGPDDSDVQITWFVDNTQVYTAKTSPREEQFNSTYRVVSVLPILHQDWLKGKEFKCKVNSKSLPSPIERTISKAKGQPHEPQVYVLPPAQEELSRNKVSVTCLIKSFHPPDIAVEWEITGQPEPENNYRTTPPQLDSDGTYFVYSKLSVDRSHWQRGNTYTCSVSHEALHSHHTQKSLTQSPGK | 6.92
mAb2 (felinized anti-NGF antibody) wild-type, feline IgG1a (antibody, part only; not given: Anti-NGF heavy and light variable domains, part only) heavy, part: ASTTAPSVFPLAPSCGTTSGATVALACLVLGYFPEPVTVSWNSGALTSGVHTFPAVLQASGLYSLSSMVTVPSSRWLSDTFTCNVAHPPSNTKVDKTVRKTDHPPGPKPCDCPKCPPPEMLGGPSIFIFPPKPKDTLSISRTPEVTCLVVDLGPDDSDVQITWFVDNTQVYTAKTSPREEQFNSTYRVVSVLPILHQDWLKGKEFKCKVNSKSLPSPIERTISKAKGQPHEPQVYVLPPAQEELSRNKVSVTCLIKSFHPPDIAVEWEITGQPEPENNYRTTPPQLDSDGTYFVYSKLSVDRSHWQRGNTYTCSVSHEALHSHHTQKSLTQSPGK | 7.60
mAb6 (felinized anti-TGFβ antibody of Tables 1 and 2) S428L, feline IgG1a (antibody, part only; not given: Anti-TGFβ variable domains, antibody unnamed, part only) heavy, part: ASTTAPSVFPLAPSCGTTSGATVALACLVLGYFPEPVTVSWNSGALTSGVHTFPAVLQASGLYSLSSMVTVPSSRWLSDTFTCNVAHPPSNTKVDKTVRKTDHPPGPKPCDCPKCPPPEMLGGPSIFIFPPKPKDTLSISRTPEVTCLVVDLGPDDSDVQITWFVDNTQVYTAKTSPREEQFNSTYRVVSVLPILHQDWLKGKEFKCKVNSKSLPSPIERTISKAKGQPHEPQVYVLPPAQEELSRNKVSVTCLIKSFHPPDIAVEWEITGQPEPENNYRTTPPQLDSDGTYFVYSKLSVDRSHWQRGNTYTCSVLHEALHSHHTQKSLTQSPGK | 7.82
mAb2 (felinized anti-NGF antibody) S428L, feline IgG1a (antibody, part only; not given: Anti-NGF heavy and light variable domains, part only) heavy, part: ASTTAPSVFPLAPSCGTTSGATVALACLVLGYFPEPVTVSWNSGALTSGVHTFPAVLQASGLYSLSSMVTVPSSRWLSDTFTCNVAHPPSNTKVDKTVRKTDHPPGPKPCDCPKCPPPEMLGGPSIFIFPPKPKDTLSISRTPEVTCLVVDLGPDDSDVQITWFVDNTQVYTAKTSPREEQFNSTYRVVSVLPILHQDWLKGKEFKCKVNSKSLPSPIERTISKAKGQPHEPQVYVLPPAQEELSRNKVSVTCLIKSFHPPDIAVEWEITGQPEPENNYRTTPPQLDSDGTYFVYSKLSVDRSHWQRGNTYTCSVLHEALHSHHTQKSLTQSPGK | 8.82
mAb1 (felinized anti-IL31 antibody) wild-type, feline IgG1a (antibody, part only; not given: Anti-IL31 heavy and light variable domains, part only) heavy, part: ASTTAPSVFPLAPSCGTTSGATVALACLVLGYFPEPVTVSWNSGALTSGVHTFPAVLQASGLYSLSSMVTVPSSRWLSDTFTCNVAHPPSNTKVDKTVRKTDHPPGPKPCDCPKCPPPEMLGGPSIFIFPPKPKDTLSISRTPEVTCLVVDLGPDDSDVQITWFVDNTQVYTAKTSPREEQFNSTYRVVSVLPILHQDWLKGKEFKCKVNSKSLPSPIERTISKAKGQPHEPQVYVLPPAQEELSRNKVSVTCLIKSFHPPDIAVEWEITGQPEPENNYRTTPPQLDSDGTYFVYSKLSVDRSHWQRGNTYTCSVSHEALHSHHTQKSLTQSPGK | 7.92
